Test system: Hela
Test: MTT antiproliferative assay, HeLa
Assay type: cell-based, human
Settings: 72 h incubation, mean ± SD of three independent experiments
Description: Table 2 IC50 (μM) ± SD of tested compounds in different cell lines after 72 h incubation. | column: Cell Line, IC50 (µM) ± SD / Hela
test-readout: IC50
# output: number + unit

IC50 for Hela with input CCCOc1[nH]c2ccccc2c1/C=C/C(=O)c1ccccc1F [11f] equals 45.3 µM

Observed IC50, Hela, O=C(/C=C/c1c[nH]c2ccccc12)c1ccccc1F [11a] : 41.7 µM

The compound CC(C)Oc1[nH]c2ccccc2c1/C=C/C(=O)c1ccc(F)cc1 [11g] on Hela: IC50 was 34.2 µM

Reported Hela IC50 for item COn1cc(/C=C/C(=O)c2ccccc2F)c2ccccc21 [11c] was 19.2 µM

Record for CCOc1[nH]c2ccccc2c1/C=C/C(=O)c1ccccc1F [11e] under target or system Hela: IC50 reported as 75.2 µM

Given the compound COc1cc(/C=C/C(=O)c2c[nH]c3ccccc23)ccc1O [19a] and test system Hela, the measured IC50 is 41.4 µM

These entries and their values trace back to paper PMC10535268.
